Tested on: KYSE-50 (Esophageal Squamous Cell Carcinoma)
PROTOCOL_NOTES: combination Emax (second highest fraction inhibited in the dose matrix, 72 h); higher = more inhibition; extreme values may be limits of the assay
Note to self: values exactly at 0.3 are Met. So combination Emax at or above 0.3 is Met, below is Not met.

Task: Kindly determine if combination Emax recorded for CC1(C)CCC(CN2CCN(c3ccc(C(=O)NS(=O)(=O)c4ccc(NCC5CCOCC5)c([N+](=O)[O-])c4)c(Oc4cnc5[nH]ccc5c4)c3)CC2)=C(c2ccc(Cl)cc2)C1 [Venetoclax] + C[C@@H](Nc1cc(F)cc(F)c1)c1cc(C(=O)N(C)C)cc2c(=O)cc(N3CCOCC3)oc12 [AZD8186] (first compound max 1 µM, 7x7, partner max 3 µM) is above or exactly 0.3.
Output: Not met

Task: Subsequent entry: C[C@@H](c1ccc2nccn2c1)n1nnc2ncc(-c3cnn(C)c3)nc21 [Savolitinib] + CN(CC[C@H](CSC1=CC=CC=C1)NC2=C(C=C(C=C2)S(=O)(=O)NC(=O)C3=CC=C(C=C3)N4CCC(CC4)[C@H](C5=CC=CC=C5C6=CC=C(C=C6)Cl)O)S(=O)(=O)C(F)(F)F)CCO [AZD4320] (first compound max 1 µM, 7x7, partner max 1 µM)
Output: Not met

Task: Subsequent entry: CC1(C)CCC(CN2CCN(c3ccc(C(=O)NS(=O)(=O)c4ccc(NCC5CCOCC5)c([N+](=O)[O-])c4)c(Oc4cnc5[nH]ccc5c4)c3)CC2)=C(c2ccc(Cl)cc2)C1 [Venetoclax] + C=CCn1c(=O)c2cnc(Nc3ccc(N4CCN(C)CC4)cc3)nc2n1-c1cccc(C(C)(C)O)n1 [AZD1775] (first compound max 1 µM, partner max 1 µM)
Output: Met

Task: Subsequent entry: CCc1c2c(nc3ccc(O)cc13)-c1cc3c(c(=O)n1C2)COC(=O)[C@]3(O)CC [SN-38] + CN(C)CCCOc1ccc(-c2ccc3ncc4c(c3c2)n(C2CCOCC2)c(=O)n4C)cn1 [AZD0156] (first compound max 0.3 µM, 7x7, partner max 1 µM)
Output: Not met

Task: Subsequent entry: CCc1c2c(nc3ccc(O)cc13)-c1cc3c(c(=O)n1C2)COC(=O)[C@]3(O)CC [SN-38] + O=C(c1cc(Cc2n[nH]c(=O)c3ccccc23)ccc1F)N1CCN(C(=O)C2CC2)CC1 [Olaparib] (first compound max 0.3 µM, 7x7, partner max 10 µM)
Output: Not met

Task: Subsequent entry: C=CCn1c(=O)c2cnc(Nc3ccc(N4CCN(C)CC4)cc3)nc2n1-c1cccc(C(C)(C)O)n1 [AZD1775] + C[C@@H]1COCCN1C2=NC(=NC(=C2)C3(CC3)[S@](=N)(=O)C)C4=C5C=CNC5=NC=C4 [AZD6738] (first compound max 1 µM, partner max 10 µM)
Output: Met
